// data source = ChEMBL document CHEMBL1149868

- Test Summary: Partition coefficient, log p of the compound
- Format: physicochemical
- Settings: octanol/water
With a cut-off of 2, any logP strictly below it is called t; any logP meeting it or above is called f.

> print(dat)
                            compound.string  label.value
1  O=C(c1cccc(Cl)c1)N1CCN(c2nnc(-c3ccc([N+](=O)[O-])s3)s2)CC1            f
2  O=C(c1cccs1)N1CCN(c2nnc(-c3ccc([N+](=O)[O-])o3)s2)CC1            t
3  O=C(c1cccs1)N1CCN(c2nnc(-c3ccc([N+](=O)[O-])s3)s2)CC1            t
4  O=C(c1ccc(Br)s1)N1CCN(c2nnc(-c3ccc([N+](=O)[O-])s3)s2)CC1            f
5  O=C(c1ccccc1Cl)N1CCN(c2nnc(-c3ccc([N+](=O)[O-])s3)s2)CC1            f
6  O=C(c1ccccc1)N1CCN(c2nnc(-c3ccc([N+](=O)[O-])s3)s2)CC1            f
7  O=C(c1ccc(Cl)s1)N1CCN(c2nnc(-c3ccc([N+](=O)[O-])o3)s2)CC1            t
